Target: MsDisA (Mycolicibacterium smegmatis, UniProt A0R564)
Sequence (A0R564 whole entry): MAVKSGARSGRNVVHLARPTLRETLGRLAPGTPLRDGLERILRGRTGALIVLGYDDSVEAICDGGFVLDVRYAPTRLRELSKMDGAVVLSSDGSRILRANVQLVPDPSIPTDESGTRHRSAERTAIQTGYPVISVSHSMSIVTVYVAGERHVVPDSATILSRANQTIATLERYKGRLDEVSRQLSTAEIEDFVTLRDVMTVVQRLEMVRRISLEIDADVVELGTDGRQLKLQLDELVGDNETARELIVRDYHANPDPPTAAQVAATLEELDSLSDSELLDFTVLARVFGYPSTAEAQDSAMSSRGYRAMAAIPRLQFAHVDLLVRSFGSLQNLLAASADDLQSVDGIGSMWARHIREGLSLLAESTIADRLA
Assay Readout: pKd
Give bare numbers, as −log10 of the molar value.

stdin: Under MsDisA (Mycolicibacterium smegmatis, UniProt A0R564), report pKd for Nc1ncnc2c1ncn2[C@@H]1O[C@H](COP(=O)(O)OP(=O)(O)OP(=O)(O)O)[C@@H](O)[C@H]1O
stdout: 5.62
